This collection of values is drawn from ChEMBL document CHEMBL1921735.

tested on: Staphylococcus aureus; assay: Antibacterial activity against methicillin-resistant Staphylococcus aureus isolate A4.018 by CLSI M07-A8 method; type: functional

chem.smiles	bound.operator	MIC, µg/mL
CNC(=O)C[C@@H]1NC(=O)c2csc(n2)-c2ccc(-c3nc(NC(=O)OCC(C)(C)N)cs3)nc2-c2csc(n2)-c2csc(n2)[C@H]([C@@H](O)c2ccccc2)NC(=O)CNC(=O)c2nc(sc2COC)[C@H](C(C)C)NC(=O)c2nc1sc2C	=	2
CNC(=O)C[C@@H]1NC(=O)c2csc(n2)-c2ccc(-c3nc(NC(=O)/C=C\C(=O)O)cs3)nc2-c2csc(n2)-c2csc(n2)[C@H]([C@@H](O)c2ccccc2)NC(=O)CNC(=O)c2nc(sc2COC)[C@H](C(C)C)NC(=O)c2nc1sc2C	=	1
CNC(=O)C[C@@H]1NC(=O)c2csc(n2)-c2ccc(-c3nc(NC(=O)OC(C)(C)C)cs3)nc2-c2csc(n2)-c2csc(n2)[C@H]([C@@H](O)c2ccccc2)NC(=O)CNC(=O)c2nc(sc2COC)[C@H](C(C)C)NC(=O)c2nc1sc2C	>	128
CNC(=O)C[C@@H]1NC(=O)c2csc(n2)-c2ccc(-c3nc(NC(=O)CCCCC(=O)O)cs3)nc2-c2csc(n2)-c2csc(n2)[C@H]([C@@H](O)c2ccccc2)NC(=O)CNC(=O)c2nc(sc2COC)[C@H](C(C)C)NC(=O)c2nc1sc2C	=	0.125
CNC(=O)C[C@@H]1NC(=O)c2csc(n2)-c2ccc(-c3nc(NC(=O)OCCCCCN)cs3)nc2-c2csc(n2)-c2csc(n2)[C@H]([C@@H](O)c2ccccc2)NC(=O)CNC(=O)c2nc(sc2COC)[C@H](C(C)C)NC(=O)c2nc1sc2C	=	1
CNC(=O)C[C@@H]1NC(=O)c2csc(n2)-c2ccc(-c3nc(NC(=O)O[C@H]4CC[C@H](C(=O)O)CC4)cs3)nc2-c2csc(n2)-c2csc(n2)[C@H]([C@@H](O)c2ccccc2)NC(=O)CNC(=O)c2nc(sc2COC)[C@H](C(C)C)NC(=O)c2nc1sc2C	=	0.125

---

system: Staphylococcus aureus; experiment: Antibacterial activity against methicillin-resistant Staphylococcus aureus isolate A4.018 by CLSI M07-A8 method; type: functional

chem.smiles	MIC
CNC(=O)C[C@@H]1NC(=O)c2csc(n2)-c2ccc(-c3nc(NC(=O)OCCCN)cs3)nc2-c2csc(n2)-c2csc(n2)[C@H]([C@@H](O)c2ccccc2)NC(=O)CNC(=O)c2nc(sc2COC)[C@H](C(C)C)NC(=O)c2nc1sc2C	1 µg/mL
CNC(=O)C[C@@H]1NC(=O)c2csc(n2)-c2ccc(-c3nc(NC(=O)OCCCCN)cs3)nc2-c2csc(n2)-c2csc(n2)[C@H]([C@@H](O)c2ccccc2)NC(=O)CNC(=O)c2nc(sc2COC)[C@H](C(C)C)NC(=O)c2nc1sc2C	1 µg/mL
CNC(=O)C[C@@H]1NC(=O)c2csc(n2)-c2ccc(-c3nc(NC(=O)CC[C@H](N)C(=O)O)cs3)nc2-c2csc(n2)-c2csc(n2)[C@H]([C@@H](O)c2ccccc2)NC(=O)CNC(=O)c2nc(sc2COC)[C@H](C(C)C)NC(=O)c2nc1sc2C	> 32 µg/mL
CNC(=O)C[C@@H]1NC(=O)c2csc(n2)-c2ccc(-c3nc(C4=N[C@H](C(=O)N5CCC[C@H]5C(N)=O)CO4)cs3)nc2-c2csc(n2)-c2csc(n2)[C@H]([C@@H](O)c2ccccc2)NC(=O)CNC(=O)c2nc(sc2COC)[C@H](C(C)C)NC(=O)c2nc1sc2C	0.25 µg/mL
CNC(=O)C[C@@H]1NC(=O)c2csc(n2)-c2ccc(-c3nc(NC(=O)CCCCN)cs3)nc2-c2csc(n2)-c2csc(n2)[C@H]([C@@H](O)c2ccccc2)NC(=O)CNC(=O)c2nc(sc2COC)[C@H](C(C)C)NC(=O)c2nc1sc2C	1 µg/mL
CNC(=O)C[C@@H]1NC(=O)c2csc(n2)-c2ccc(-c3nc(NC(=O)[C@H](C)CCC(=O)O)cs3)nc2-c2csc(n2)-c2csc(n2)[C@H]([C@@H](O)c2ccccc2)NC(=O)CNC(=O)c2nc(sc2COC)[C@H](C(C)C)NC(=O)c2nc1sc2C	0.25 µg/mL
CNC(=O)C[C@@H]1NC(=O)c2csc(n2)-c2ccc(-c3nc(NC(=O)CCCO)cs3)nc2-c2csc(n2)-c2csc(n2)[C@H]([C@@H](O)c2ccccc2)NC(=O)CNC(=O)c2nc(sc2COC)[C@H](C(C)C)NC(=O)c2nc1sc2C	1 µg/mL
CNC(=O)C[C@@H]1NC(=O)c2csc(n2)-c2ccc(-c3nc(NC(=O)c4ccc(C(=O)O)cn4)cs3)nc2-c2csc(n2)-c2csc(n2)[C@H]([C@@H](O)c2ccccc2)NC(=O)CNC(=O)c2nc(sc2COC)[C@H](C(C)C)NC(=O)c2nc1sc2C	0.25 µg/mL
CNC(=O)C[C@@H]1NC(=O)c2csc(n2)-c2ccc(-c3nc(NC(=O)CCC(=O)O)cs3)nc2-c2csc(n2)-c2csc(n2)[C@H]([C@@H](O)c2ccccc2)NC(=O)CNC(=O)c2nc(sc2COC)[C@H](C(C)C)NC(=O)c2nc1sc2C	0.25 µg/mL
CNC(=O)C[C@@H]1NC(=O)c2csc(n2)-c2ccc(-c3nc(NC(=O)OCCCC(=O)O)cs3)nc2-c2csc(n2)-c2csc(n2)[C@H]([C@@H](O)c2ccccc2)NC(=O)CNC(=O)c2nc(sc2COC)[C@H](C(C)C)NC(=O)c2nc1sc2C	0.06 µg/mL
CNC(=O)C[C@@H]1NC(=O)c2csc(n2)-c2ccc(-c3nc(NC(=O)O[C@H]4CC[C@@H](C(=O)O)CC4)cs3)nc2-c2csc(n2)-c2csc(n2)[C@H]([C@@H](O)c2ccccc2)NC(=O)CNC(=O)c2nc(sc2COC)[C@H](C(C)C)NC(=O)c2nc1sc2C	0.125 µg/mL
CNC(=O)C[C@@H]1NC(=O)c2csc(n2)-c2ccc(-c3nc(NC(=O)CC[C@@H](C)C(=O)O)cs3)nc2-c2csc(n2)-c2csc(n2)[C@H]([C@@H](O)c2ccccc2)NC(=O)CNC(=O)c2nc(sc2COC)[C@H](C(C)C)NC(=O)c2nc1sc2C	0.25 µg/mL
CNC(=O)C[C@@H]1NC(=O)c2csc(n2)-c2ccc(-c3nc(NC(=O)CCCCP(=O)(O)O)cs3)nc2-c2csc(n2)-c2csc(n2)[C@H]([C@@H](O)c2ccccc2)NC(=O)CNC(=O)c2nc(sc2COC)[C@H](C(C)C)NC(=O)c2nc1sc2C	> 32 µg/mL
CNC(=O)C[C@@H]1NC(=O)c2csc(n2)-c2ccc(-c3nc(NC(=O)[C@H]4CC[C@H](C(=O)O)CC4)cs3)nc2-c2csc(n2)-c2csc(n2)[C@H]([C@@H](O)c2ccccc2)NC(=O)CNC(=O)c2nc(sc2COC)[C@H](C(C)C)NC(=O)c2nc1sc2C	0.125 µg/mL
CNC(=O)C[C@@H]1NC(=O)c2csc(n2)-c2ccc(-c3nc(NC(=O)C(F)(F)F)cs3)nc2-c2csc(n2)-c2csc(n2)[C@H]([C@@H](O)c2ccccc2)NC(=O)CNC(=O)c2nc(sc2COC)[C@H](C(C)C)NC(=O)c2nc1sc2C	> 32 µg/mL
